# target of assay: AAK1 (Homo sapiens)
# Sequence (Q2M2I8 27-365 limits assumed): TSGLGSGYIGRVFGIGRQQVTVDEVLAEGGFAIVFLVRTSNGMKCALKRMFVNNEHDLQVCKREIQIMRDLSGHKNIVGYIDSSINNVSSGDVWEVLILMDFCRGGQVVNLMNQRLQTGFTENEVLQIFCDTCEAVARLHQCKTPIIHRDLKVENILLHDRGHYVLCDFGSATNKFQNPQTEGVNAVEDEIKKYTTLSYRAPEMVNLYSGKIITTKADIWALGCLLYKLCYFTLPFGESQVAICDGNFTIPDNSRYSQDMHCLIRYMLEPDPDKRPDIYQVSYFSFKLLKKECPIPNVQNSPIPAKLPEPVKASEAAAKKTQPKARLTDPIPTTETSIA
# protocol description: biochemical
# Design: kinase domain; Thermal shift assay (DSF, SYPRO Orange), 2 uM kinase domain, mean delta Tm of triplicates versus DMSO
# protocol conditions: read-out: AAK1
result type: ΔTm at 12.5 µM (°C)

I. Cc1cc(Nc2cc(CN3CCOCC3)c3nc(C)c(Cc4ccc(Cl)cc4F)n3n2)n[nH]1
II. CC(C)Oc1cc(Nc2nc(N[C@@H](C)c3ccc(F)cn3)ncc2Cl)n[nH]1
III. COc1cc(Nc2c(C#N)cnc3cc(OCCCN4CCN(C)CC4)c(OC)cc23)c(Cl)cc1Cl
IV. Cn1cnc2c(F)c(Nc3ccc(Br)cc3F)c(C(=O)NOCCO)cc21
[in] Order the 4 listed items from lowest to highest according to ΔTm at 12.5 µM. Form entry: labels listed in requested order.
[out] IV, II, III, I
(IV: 0.197 °C, II: 1.65 °C, III: 3.03 °C, I: 6.86 °C)

###

# target of assay: UniProt:Q2M2I8
result type: pKd
The quantity pKd is defined as the negative base-10 logarithm of the molar concentration.

[in] Can you share its pKd? I mean this compound: `NC(=O)Nc1cc(-c2cccc(F)c2)sc1C(=O)N[C@H]1CCCNC1`
[out] 7.44

###

# target of assay: MPSK1 (Homo sapiens)
# Construct: gene STK16; catalytic domain-containing construct
# Sequence (O75716 whole entry, the tested form may be a part): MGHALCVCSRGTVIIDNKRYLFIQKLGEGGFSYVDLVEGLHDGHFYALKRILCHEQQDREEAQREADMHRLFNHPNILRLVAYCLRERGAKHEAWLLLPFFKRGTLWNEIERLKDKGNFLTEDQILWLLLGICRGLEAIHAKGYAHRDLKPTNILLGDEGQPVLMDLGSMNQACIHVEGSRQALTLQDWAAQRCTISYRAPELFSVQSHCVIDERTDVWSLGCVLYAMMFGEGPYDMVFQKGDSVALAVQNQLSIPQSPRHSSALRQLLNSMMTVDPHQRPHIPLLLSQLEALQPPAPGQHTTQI
# protocol description: biochemical
# Set-up: Thermal shift assay (DSF, SYPRO Orange), 2 uM kinase domain, mean delta Tm of triplicates versus DMSO
# protocol conditions: read-out: MPSK1
# Description: All measurements were performed in triplicate and mean values were reported for all compounds (Table S1). […] However, NAKs are often omitted from selectivity panels, including commercial screens.
result type: ΔTm at 12.5 µM (°C)

These solved cases illustrate the format of a correct answer.
- molecule: "CN(C)C[C@@H]1CCn2cc(c3ccccc32)C2=C(C(=O)NC2=O)c2cn(c3ccccc23)CCO1 [Ruboxistaurin]"
  unit string: "°C"
  ΔTm at 12.5 µM: 1.86
- molecule: "Cc1cc2c(F)c(Oc3ncnn4cc(OC[C@@H](C)O)c(C)c34)ccc2[nH]1 [Brivanib]"
  unit string: "°C"
  ΔTm at 12.5 µM: 0.977
- molecule: "Cc1cnc(Nc2ccc(F)cc2Cl)nc1-c1c[nH]c(C(=O)N[C@H](CO)c2cccc(Cl)c2)c1 [VX-11E]"
  unit string: "°C"
  ΔTm at 12.5 µM: 0.627
- molecule: "CO[C@@H]1[C@H](N(C)C(=O)c2ccccc2)C[C@H]2O[C@]1(C)n1c3ccccc3c3c4c(c5c6ccccc6n2c5c31)C(=O)NC4 [Midostaurin]"
  unit string: "°C"
  ΔTm at 12.5 µM: 10.4
- molecule: "COc1ccc(Cl)c(Nc2nc3ccccc3nc2NS(=O)(=O)c2cccc(NC(=O)C(C)(C)N)c2)c1 [Pilaralisib]"
  unit string: "°C"
  ΔTm at 12.5 µM: 0.39

I. Nc1ncnc2c1c(COc1cccc(Cl)c1)nn2C1CCOCC1 [PF-4800567]
II. CC[C@@H]1C(=O)N(C)c2cnc(Nc3ccc(C(=O)N[C@H]4CC[C@H](N5CCN(CC6CC6)CC5)CC4)cc3OC)nc2N1C(C)C [Volasertib]
III. CCS(=O)(=O)c1cccc(-c2cc(C(=O)NC3CCN(C)CC3)c(C)c3[nH]c4ncc(C)cc4c23)c1 [TAK-901]
IV. Cc1nc(Nc2ncc(C(=O)Nc3c(C)cccc3Cl)s2)cc(N2CCN(CCO)CC2)n1 [Dasatinib]
[in] Rank the items in ascending order with respect to ΔTm at 12.5 µM. Form entry: labels listed in requested order.
[out] IV, I, II, III
